# ASSAYED_TARGET: T1, Factor VIIIa (recombinant FVIII, Kogenate FS, activated with alpha-thrombin) (UniProt P00451 20-2351)
# T1 construct: also called FVIIIa; cofactor
# T1 sequence (looked up): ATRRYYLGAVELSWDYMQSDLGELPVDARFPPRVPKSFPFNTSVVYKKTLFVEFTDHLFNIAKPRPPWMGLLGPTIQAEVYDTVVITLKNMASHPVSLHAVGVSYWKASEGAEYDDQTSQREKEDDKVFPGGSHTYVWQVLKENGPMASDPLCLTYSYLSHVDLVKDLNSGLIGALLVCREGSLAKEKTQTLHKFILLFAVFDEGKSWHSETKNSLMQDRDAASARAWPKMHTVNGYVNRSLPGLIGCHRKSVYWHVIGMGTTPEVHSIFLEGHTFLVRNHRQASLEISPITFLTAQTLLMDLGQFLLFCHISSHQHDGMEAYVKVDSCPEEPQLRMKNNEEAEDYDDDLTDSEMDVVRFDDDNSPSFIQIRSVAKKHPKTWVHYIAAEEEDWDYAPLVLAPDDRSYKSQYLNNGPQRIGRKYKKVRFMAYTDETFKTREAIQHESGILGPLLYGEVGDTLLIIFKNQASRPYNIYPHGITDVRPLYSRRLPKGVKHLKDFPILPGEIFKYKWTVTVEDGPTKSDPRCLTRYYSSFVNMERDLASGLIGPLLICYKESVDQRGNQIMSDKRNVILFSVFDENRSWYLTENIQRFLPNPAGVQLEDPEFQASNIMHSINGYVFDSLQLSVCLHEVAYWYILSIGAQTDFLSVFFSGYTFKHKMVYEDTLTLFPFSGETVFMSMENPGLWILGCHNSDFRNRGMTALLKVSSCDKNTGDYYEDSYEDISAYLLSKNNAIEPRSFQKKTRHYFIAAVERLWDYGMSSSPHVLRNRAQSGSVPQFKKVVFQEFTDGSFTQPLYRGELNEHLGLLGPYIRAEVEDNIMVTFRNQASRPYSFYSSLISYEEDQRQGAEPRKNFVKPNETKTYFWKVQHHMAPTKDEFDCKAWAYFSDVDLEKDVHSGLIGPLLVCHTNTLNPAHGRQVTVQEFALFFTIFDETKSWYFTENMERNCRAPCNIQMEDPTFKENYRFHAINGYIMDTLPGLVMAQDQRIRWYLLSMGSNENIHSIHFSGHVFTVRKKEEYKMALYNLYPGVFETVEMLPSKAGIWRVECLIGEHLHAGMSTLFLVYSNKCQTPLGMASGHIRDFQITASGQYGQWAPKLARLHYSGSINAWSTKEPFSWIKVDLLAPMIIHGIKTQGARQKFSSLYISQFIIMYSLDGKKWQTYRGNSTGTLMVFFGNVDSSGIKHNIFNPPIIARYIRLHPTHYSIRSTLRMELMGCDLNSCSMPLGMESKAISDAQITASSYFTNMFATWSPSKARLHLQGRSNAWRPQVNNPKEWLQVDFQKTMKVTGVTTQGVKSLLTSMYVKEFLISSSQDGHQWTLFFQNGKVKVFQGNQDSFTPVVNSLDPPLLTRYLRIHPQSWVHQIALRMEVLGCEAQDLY
# PROCEDURE_DETAILS: apparent functional KD (KD-app): FXa generation by FIXa with FVIIIa titrated, PC/PS vesicles, saturating FX, fluorogenic Spectrafluor FXa
ENDPOINT_LABEL: pKd
The quantity pKd is defined as the negative base-10 logarithm of the molar concentration.

Exercise: # get_value(readout='pKd', item= FIXa-D104N/K106S/Y155F/R318Y/R338E/R403E/E410N (enzyme) chain 1: YNSGKLEEFVQGNLERECMEEKCSFEEAREVFENTERTTEFWKQYVDGDQCESNPCLNGGSCKDDINSYECWCPFGFEGKNCELDVTCNIKNGRCEQFCKNSANNSVVCSCTEGYRLAENQKSCEPAVPFPCGRVSVSQTSKLTR chain 2: VVGGEDAKPGQFPWQVVLNGKVDAFCGGSIVNEKWIVTAAHCVETGVKITVVAGEHNIEETEHTEQKRNVIRIIPHHNYNAAINKYNHDIALLELDEPLVLNSYVTPICIADKEYTNIFLKFGSGYVSGWGRVFHKGYSALVLQYLRVPLVDRATCLESTKFTIYNNMFCAGFHEGGRDSCQGDSGGPHVTEVEGTSFLTGIISWGEECAMKGKYGIYTKVSEYVNWIKNKTKLT )
Key: 7.21
